# System: HOP-62 NSCLC
# protocolText: NCI-60 one-dose screen, 48 h
# protocolConditions: 10 µM unless noted
This is part of a sample that, as a whole, favours compounds with a hit. Of some 83,000 tested, about 20% had one in any assay. Calls of active or inactive are those of the source. The calls were made as follows: active = growth percent below 10; inactive = the rest.
Output constraint: value belongs to true (1) = active, false (0) = inactive

compoundSmiles: CCN1C[C@@H](C)n2c(c(O)c3c(=O)n(Cc4ccc(F)c(Cl)c4)nc(C(=O)NC)c32)C1=O
group: false (0)

compoundSmiles: CCn1c2ccccc2c2ccc(C(C)=O)cc21
group: false (0)

Check the results log: what was the call for `ClC1=C(Cl)C(Cl)=C(Cl)C1=C/C=C/c1ccccc1` ?
true (1)
